# test-target: human PLK1 (Homo sapiens, UniProt P53350)
# Construct: made in house; host or cells: Sf21 insect cells, recombinant baculovirus (pFASTBAC1, Bac-to-Bac)
# Sequence (P53350 whole entry): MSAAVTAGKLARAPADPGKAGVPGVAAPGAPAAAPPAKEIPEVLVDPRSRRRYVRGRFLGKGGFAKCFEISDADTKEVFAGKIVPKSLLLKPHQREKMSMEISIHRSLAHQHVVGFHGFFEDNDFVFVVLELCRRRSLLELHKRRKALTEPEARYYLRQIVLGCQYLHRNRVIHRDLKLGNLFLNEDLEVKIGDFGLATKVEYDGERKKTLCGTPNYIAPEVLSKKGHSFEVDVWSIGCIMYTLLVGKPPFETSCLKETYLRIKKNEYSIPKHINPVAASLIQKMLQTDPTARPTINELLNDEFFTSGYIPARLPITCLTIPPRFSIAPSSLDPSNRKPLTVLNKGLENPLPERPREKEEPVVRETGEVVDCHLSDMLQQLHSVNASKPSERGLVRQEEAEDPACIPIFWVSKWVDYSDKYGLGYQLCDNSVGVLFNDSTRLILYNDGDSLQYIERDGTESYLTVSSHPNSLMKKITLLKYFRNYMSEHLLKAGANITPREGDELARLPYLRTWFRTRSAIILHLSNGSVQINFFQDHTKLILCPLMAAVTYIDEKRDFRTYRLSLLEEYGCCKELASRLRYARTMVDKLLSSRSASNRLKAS
# experimental-details: In vitro enzymatic assay: phosphorylation of alpha casein by recombinant PLK1 (Example A)
# Format: biochemical
# condition-description: recombinant FLAG-tagged PLK1, alpha casein substrate, 500 nmol/L ATP, [γ-32P]ATP, room temperature 40 min; read-out: pIC50 PLK1 (converted)
measurement-label: IC50 (nM)

Guide cases for IC50, answers given:
>>> numeric_value("CC[C@@H]1c2c(C#N)ncn2-c2cnc(Nc3cc(F)c(C(=O)NC4CCN(C5CCN(CC6CC6)CC5)CC4)cc3OC)nc2N1C(C)C")
3.98
>>> numeric_value("CC[C@@H]1c2c(C#N)ncn2-c2cnc(Nc3ccc(C(=O)NC4CCN(C5CCN(CC)CC5)CC4)cc3OC)nc2N1C(C)C")
2
>>> numeric_value("CC[C@@H]1c2c(C#N)ncn2-c2cnc(Nc3cc(F)c(C(=O)NC4CN(C5CCN(CC6CC6)CC5)C4)cc3OC)nc2N1C(C)C")
3.16

a. CC[C@@H]1c2c(C#N)ncn2-c2cnc(Nc3cc(F)c(C(=O)NC4CCN(C5CCN(CC(C)C)CC5)CC4)cc3OC)nc2N1C1CCCC1
b. CC[C@@H]1c2c(C#N)ncn2-c2cnc(Nc3ccc(C(=O)NC4CCN(C5CCN(CC(C)C)CC5)CC4)cc3OC)nc2N1C1CCCC1
Query: Pick the one with the larger IC50: a vs b // return label of chosen record
Result: b

I. CC[C@@H]1c2c(C#N)ncn2-c2cnc(Nc3ccc(C(=O)NC4CN(C5CCN(CC6CC6)CC5)C4)cc3OC)nc2N1C(C)C
II. CC[C@@H]1c2c(C#N)ncn2-c2cnc(Nc3ccc(C(=O)NC4CCN(C5CCN(CC6CC6)CC5)CC4)cc3OC)nc2N1C1CCCC1
III. CC[C@@H]1c2c(C#N)ncn2-c2cnc(Nc3cc(F)c(C(=O)Nc4cccc(CN5CCN(C)CC5)c4)cc3OC)nc2N1C(C)C
Query: # desc sort on IC50 across 3 compounds Please reply with the labels ordered as requested. Many thanks.
Result: III, I, II
